Measured Hepatotoxicity (moderate) accompanies every entry in the list below.
details: human, serum
Please reply with the number alone, leaving off any unit.

PEGASPARGASE : 0

Challenge: Consider the substance shown here: CARBOPLATIN What is its recorded Hepatotoxicity (moderate)?
Response given: 5

Challenge: Consider the substance shown here: GONADOTROPIN, SERUM What is its recorded Hepatotoxicity (moderate)?
Response given: 0

----------
conditions: human
Measured Hepatotoxicity (granulomatous hepatitis) accompanies every entry in the list below.
Please reply with the number alone, leaving off any unit.

Solved entries:
COc1cc2nc(N3CCN(C(=O)c4ccco4)CC3)nc(N)c2cc1OC [PRAZOSIN] : 0
C[C@@H](O)[C@H]1C(=O)N2C(C(=O)[O-])=C(SC3Cn4cnc[n+]4C3)[C@H](C)[C@H]12 (stereo partly drawn) [BIAPENEM] : 0
CCc1nc(N)nc(N)c1-c1ccc(Cl)cc1 [PYRIMETHAMINE] : 1
CN(C)CCC=C1c2ccccc2COc2ccccc21 [DOXEPIN] : 0
CCOC(=O)n1ccn(C)c1=S [CARBIMAZOLE] : 1

Challenge: Consider the molecule shown here: CN(Cc1cnc2nc(N)nc(N)c2n1)c1ccc(C(=O)N[C@@H](CCC(=O)O)C(=O)O)cc1 [METHOTREXATE] What is its recorded Hepatotoxicity (granulomatous hepatitis)?
Response given: 8

Challenge: Consider the molecule shown here: NS(=O)(=O)c1cc2c(cc1Cl)NC(CC1CCCC1)NS2(=O)=O (stereo not drawn) [CYCLOPENTHIAZIDE] What is its recorded Hepatotoxicity (granulomatous hepatitis)?
Response given: 0

Challenge: Consider the molecule shown here: CO[C@@H]1[C@@H](N)[C@@H](O[C@H]2[C@H](Oc3cccc4c(O)c5c(=O)oc6ccc(C)c7c(=O)oc(c34)c5c67)O[C@H](C)[C@H](O)[C@]2(C)O)O[C@H](C)[C@@H]1O [ELSAMITRUCIN] What is its recorded Hepatotoxicity (granulomatous hepatitis)?
Response given: 0

----------
assay: Highest frequency of acute liver toxicity observed during clinical trials, expressed as a percentage. [column '% AIGUE' in source]; settings: human, Liver
Measured Hepatotoxicity (acute) accompanies every entry in the list below.
The reply should contain only the number, in %.

Solved entries:
O=C1CN=C(c2ccccc2Cl)c2cc([N+](=O)[O-])ccc2N1 [CLONAZEPAM] : 0
CC[C@H](C)C(=O)O[C@H]1C[C@H](O)C=C2C=C[C@H](C)[C@H](CC[C@@H](O)C[C@@H](O)CC(=O)O)[C@H]21 [PRAVASTATIN] : 1.1
COc1cc([C@@H]2c3cc4c(cc3[C@@H](O[C@@H]3O[C@@H]5CO[C@@H](C)O[C@H]5[C@H](O)[C@H]3O)[C@H]3COC(=O)[C@H]23)OCO4)cc(OC)c1O [ETOPOSIDE] : 1
Nc1ccc(S(=O)(=O)c2ccc(N)cc2)cc1 [DAPSONE] : 5
Nc1nc2c(ncn2COCCO)c(=O)[nH]1 [ACYCLOVIR] : 1.9
CN(C)CCC=C1c2ccccc2C=Cc2ccccc21 [CYCLOBENZAPRINE] : 0
Nc1ncn([C@@H]2O[C@H](CO)[C@@H](O)[C@@H]2O)c(=O)n1 [FAZARABINE] : 0
CN(C)C(=N)N=C(N)N [METFORMIN] : 0

Challenge: Consider the compound shown here: CO/N=C(\C(=O)N[C@@H]1C(=O)N2C(C(=O)[O-])=C(C[N+]3(C)CCCC3)CS[C@H]12)c1csc(N)n1 What is its recorded Hepatotoxicity (acute)?
Response given: 0
